In this section, each of the molecules is paired with its reported growth AUC normalised to DMSO control.
test system: P. vulgatus RND KO; assay: growth AUC normalised to DMSO control (median) (fraction of control); higher = less growth inhibition, active = hit call of the paper; conditions: 20 µM;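 also: active when median AUC fell below 0.1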
Structures can show the parent of a compound that is named as a salt.

CNc1ncnc2c1ncn2[C@@H]1O[C@H](CO)[C@@H](O)[C@H]1O; 0.998 (inactive)
Cc1cc(NS(=O)(=O)c2ccc(N)cc2)no1; 0.951 (inactive)
O=C(c1ccc(OCCN2CCCCC2)cc1)c1c(-c2ccc(O)cc2)sc2cc(O)ccc12 [Raloxifene hydrochloride]; 1.06 (inactive)
COc1cccc(N(C)C(=S)Oc2ccc3c(c2)CCCC3)n1 [Liranaftate]; 1.03 (inactive)

Please report the measured growth AUC normalised to DMSO control for COc1cc(NC(C)CCCN)c2ncccc2c1 (centres undefined) [Primaquine diphosphate]
1.01 (inactive)

Please report the measured growth AUC normalised to DMSO control for C=CCN1CCCC1CNC(=O)c1cc2nn[nH]c2cc1OC (centres undefined) [Alizapride hydrochloride]
0.998 (inactive)

Please report the measured growth AUC normalised to DMSO control for COCC(=O)Nc1c(I)c(C(=O)NCC(O)CO)c(I)c(C(=O)N(C)CC(O)CO)c1I (centres undefined) [Iopromide]
1.05 (inactive)

Please report the measured growth AUC normalised to DMSO control for CN(C)CCCN1c2ccccc2CCc2ccc(Cl)cc21 [Clomipramine hydrochloride]
0.976 (inactive)

Please report the measured growth AUC normalised to DMSO control for `CC(C)(C(=O)c1cccnc1)c1cccnc1`
0.996 (inactive)

* * *

system: Yersinia pseudotuberculosis; assay: growth AUC normalised to DMSO control (fraction of control); higher = less growth inhibition, active = hit call of the paper; conditions: 20 µM
Structures can show the parent of a compound that is named as a salt.
In this section, each of the molecules is paired with its reported growth AUC normalised to DMSO control.
Lab note: record the figure alone, no unit after it.

Worked cases, growth AUC normalised to DMSO control given:
O=C(O)Cc1ccc(-c2ccccc2)cc1 [Felbinac]; 0.994
CCN(CC)CCOC(=O)C(c1ccccc1)c1ccccc1 [Adiphenine hydrochloride]; 1
Cc1cn[nH]c1 [Fomepizole]; 0.996

Report growth AUC normalised to DMSO control from Yersinia pseudotuberculosis testing of CN(C)CCC=C1c2ccccc2COc2ccccc21 [Doxepin hydrochloride]
0.994

Report growth AUC normalised to DMSO control from Yersinia pseudotuberculosis testing of COc1ccccc1OCCNCC(O)COc1cccc2[nH]c3ccccc3c12 (stereo not given) [Carvedilol]
0.997

* * *

tested on: P. vulgatus RND KO; assay: growth AUC normalised to DMSO control (median) (fraction of control); higher = less growth inhibition, active = hit call of the paper; conditions: 20 µM;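 also: active when median AUC fell below 0.1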
Would you please tag the item yes when its growth AUC normalised to DMSO control is 1 or above, and no when it is below?

C[C@@H](O)[C@H]1C(=O)N2C(C(=O)O)=C(S[C@@H]3CN[C@H](CNS(N)(=O)=O)C3)[C@H](C)[C@H]12 [Doripenem monohydrate]; no

Please indicate if the recorded growth AUC normalised to DMSO control for `Oc1c(Cl)cc(Cl)cc1Sc1cc(Cl)cc(Cl)c1O` meets or exceeds 1.
no

Please indicate if the recorded growth AUC normalised to DMSO control for `Cn1c([N+](=O)[O-])cnc1COC(N)=O` meets or exceeds 1.
no

Please indicate if the recorded growth AUC normalised to DMSO control for `CCCCN(CCCC)CCCOC(=O)c1ccc(N)cc1` meets or exceeds 1.
yes

Please indicate if the recorded growth AUC normalised to DMSO control for CC(C)[N+](C)(CCOC(=O)C1c2ccccc2Oc2ccccc21)C(C)C [Propantheline bromide] meets or exceeds 1.
no

Please indicate if the recorded growth AUC normalised to DMSO control for CC1(C)O[C@@H]2C[C@H]3[C@@H]4C[C@H](F)C5=CC(=O)CC[C@]5(C)[C@H]4[C@@H](O)C[C@]3(C)[C@]2(C(=O)CO)O1 [Flurandrenolide] meets or exceeds 1.
yes

Please indicate if the recorded growth AUC normalised to DMSO control for Cc1ccc2c([nH]c(=O)c3c(=O)cc(C(=O)OCCC(C)C)oc32)c1C [Repirinast] meets or exceeds 1.
no
